// data source = patent US11919902B2

// IC50 collected for PIP4K2A (full length protein, SignalChem) (Homo sapiens, UniProt P48426)

{"COMPOUND": "O=C(Nc1cccnc1)c1cc2c(-c3cncc(-c4ccc(N5CCCC5=O)cc4)c3)ccnc2[nH]1 [Example 328]", "IC50": "2500 to 5000 nM"}
{"COMPOUND": "CN(C)C(=O)c1ccc(-c2cc(-c3cnc4c(c3)c(-c3cccnc3)cn4C)cnc2N)nc1 [Example 121]", "IC50": "100 to 1000 nM"}
{"COMPOUND": "Cn1ncc2c(-c3cncc(-c4ccc(N5CCCC5=O)cc4)c3)ccnc21 [Example 218]", "IC50": "5 to 100 nM"}

Now, please, on to the next compound.
Qu. Lab request: please report IC50 under test system PIP4K2A (full length protein, SignalChem) (Homo sapiens, UniProt P48426) for Cc1cc(N2CCCC2=O)ccc1-c1cncc(-c2cn(C)c3ncc(C(C)(C)O)cc23)c1 [Example 168]
Ans. 100 to 1000 nM
